- measurement-protocol: NO release half-life by disappearance of UV absorption in phosphate buffer
- Format: physicochemical
- particulars: phosphate buffer; buffered aqueous solution, pH 7.4, 22° C.; read-out: half-life (converted)
parameter: half-life (min)
Your answer is read as min, so omit the unit and give the number.

Asked: What value of half-life has been reported for the following compound? `CCN(CCN)[N+]([O-])=NO`
Given back: 333

Asked: Let us now turn to `CN(CCN)[N+]([O-])=NO`
Given back: 40

Asked: Let us now turn to `CNCCCN(C)[N+]([O-])=NO`
Given back: 10.1

Asked: Let us now turn to `CNCCN(C)[N+]([O-])=NO`
Given back: 36.1

Asked: Let us now turn to `CNCCCCN(C)[N+]([O-])=NO`
Given back: 1.3

Asked: Let us now turn to `NCCN(CCN)[N+]([O-])=NO`
Given back: 3360
